Sourced from ChEMBL document CHEMBL1154784

Target sequence: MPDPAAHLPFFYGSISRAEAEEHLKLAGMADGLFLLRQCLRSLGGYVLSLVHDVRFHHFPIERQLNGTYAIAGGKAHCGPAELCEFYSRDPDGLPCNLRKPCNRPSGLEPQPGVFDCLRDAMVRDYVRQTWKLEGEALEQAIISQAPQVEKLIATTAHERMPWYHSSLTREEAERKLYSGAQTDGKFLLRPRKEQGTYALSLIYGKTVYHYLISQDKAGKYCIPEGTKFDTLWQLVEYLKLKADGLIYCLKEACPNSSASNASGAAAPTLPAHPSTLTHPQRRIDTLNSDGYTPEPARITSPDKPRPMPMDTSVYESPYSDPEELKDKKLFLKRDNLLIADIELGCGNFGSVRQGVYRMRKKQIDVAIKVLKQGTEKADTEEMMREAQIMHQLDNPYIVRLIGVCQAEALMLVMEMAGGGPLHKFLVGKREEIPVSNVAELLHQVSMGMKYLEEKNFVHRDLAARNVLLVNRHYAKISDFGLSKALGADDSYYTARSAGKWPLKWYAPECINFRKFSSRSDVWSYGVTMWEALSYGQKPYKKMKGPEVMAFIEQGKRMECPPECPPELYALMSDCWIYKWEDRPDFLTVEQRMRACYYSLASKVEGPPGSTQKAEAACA
measurement-label: IC50 (µM)
Please give a number only; it is taken to be in µM.

Please fill in: IC50 reported for Cc1c(CCC(=O)O)c[nH]c1/C=C1\C(=O)Nc2ccccc21 = 25

Please fill in: IC50 reported for Cc1[nH]c(/C=C2\C(=O)Nc3ccccc32)c(C)c1CCC(=O)O [ORANTINIB] = 28.4
